# measured target: T1, recombinant NRP-1 protein (neuropilin-1) (UniProt O14786 22-856)
# T1 construct: Neuropilin-1 (NRP-1), recombinant protein bought from Bio-Techne; Coated on the ELISA plate; also called neuropilin-1 receptor; NPR-1; source: bought: Bio-Techne
# T1 sequence (looked up): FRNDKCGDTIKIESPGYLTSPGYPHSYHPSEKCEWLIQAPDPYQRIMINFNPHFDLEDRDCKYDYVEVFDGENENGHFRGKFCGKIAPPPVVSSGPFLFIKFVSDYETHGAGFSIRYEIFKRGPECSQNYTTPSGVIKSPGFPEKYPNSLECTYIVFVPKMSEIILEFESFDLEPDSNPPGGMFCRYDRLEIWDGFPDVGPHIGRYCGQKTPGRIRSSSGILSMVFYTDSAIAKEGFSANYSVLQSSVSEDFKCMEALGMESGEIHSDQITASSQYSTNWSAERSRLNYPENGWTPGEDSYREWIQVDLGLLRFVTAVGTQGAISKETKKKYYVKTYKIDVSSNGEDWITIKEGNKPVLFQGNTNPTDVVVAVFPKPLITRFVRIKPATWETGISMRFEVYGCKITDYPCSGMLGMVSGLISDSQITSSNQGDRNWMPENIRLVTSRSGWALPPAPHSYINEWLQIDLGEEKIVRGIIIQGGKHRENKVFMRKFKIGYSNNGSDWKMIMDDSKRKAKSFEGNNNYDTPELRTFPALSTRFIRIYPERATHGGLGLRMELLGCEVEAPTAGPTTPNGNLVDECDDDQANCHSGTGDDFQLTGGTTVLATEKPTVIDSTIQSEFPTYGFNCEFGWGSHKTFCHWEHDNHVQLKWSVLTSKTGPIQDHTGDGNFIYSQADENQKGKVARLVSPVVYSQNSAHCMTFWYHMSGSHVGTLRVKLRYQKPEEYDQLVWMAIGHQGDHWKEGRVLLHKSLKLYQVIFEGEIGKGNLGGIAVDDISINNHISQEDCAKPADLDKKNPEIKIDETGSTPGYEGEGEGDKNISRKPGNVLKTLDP
# test protocol: ELISA; competition; NRP-1 coated on 96 well plate at 2 μg/mL in PBS overnight at room temperature, blocked with PBS 0.5 % BSA; 5 ng/mL biotinylated VEGF-A165 in blocking buffer with 2 μg/mL heparin, with different peptide concentrations of competitor, 2 h at room temperature; streptavidin-HRP, OD 450 nm
# test context: both partners purified
No end group written: not given here. *: point of attachment. Pyropheophorbide(a) = C=Cc1c(C)c2cc3nc(c4c5[nH]c(cc6nc(cc1[nH]2)C(C)=C6CC)c(C)c5C(=O)C4)[C@@H](CCC(=O)*)[C@@H]3C; Hexanoyl(6-maleimido) = O=C1C=CC(=O)N1CCCCCC(=O)*
reported property: pIC50
Give bare numbers, as −log10 of the molar value.

Please review the following examples before continuing.
INSERT INTO results (binder, recorded_number) VALUES
  ('H-KDKPPR-OH (free peptide with free N-terminus (H-) and free C-terminal acid (-OH), developed by the authors'' team to target NRP-1; also called free KDKPPR peptide; source: synthetic peptide) [H-KDKPPR-OH peptide]', 5.70),
  ('{Hexanoyl(6-maleimido)}-K(Pyropheophorbide(a))DKPPR-OH (SMILES C=Cc1c(C)c2cc3nc(c4c5[nH]c(cc6nc(cc1[nH]2)C(C)=C6CC)c(C)c5C(=O)C4)[C@@H](CCC(=O)NCCCC[C@H](NC(=O)CCCCCN1C(=O)C=CC1=O)C(=O)N[C@@H](CC(=O)O)C(=O)N[C@@H](CCCCN)C(=O)N1CCC[C@H]1C(=O)N1CCC[C@H]1C(=O)N[C@@H](CCCNC(=N)N)C(=O)O)[C@@H]3C, KDKPPR peptide; first lysine bears Pyro on its side chain and MI on its alpha-amine; free C-terminal acid; also called PP-PS conjugate; peptide-photosensitizer conjugate; source: synthetic peptide (Fmoc/tBu solid phase, preparative HPLC)) [MI-K(Pyro)DKPPR-OH]', 5.82);

Kindly consider the entry below.
Qu. Using the record for K(Pyropheophorbide(a))DKPPR-OH (other, not fully specified (N-terminus); printed as AuNRs@PEG-MI-K(Pyro)DKPPR-OH; also: MI joined by thioether to AuNRs@PEG-SH, KDKPPR peptide of m4, grafted through its N-terminal maleimide onto the surface of PEGylated gold nanorods; Many peptide copies on each nanorod (multivalent); 1 mg/mL of the nanorods holds 257.7 µM of peptide; also called hybrid AuNRs; functionalized AuNRs) [AuNRs@PEG-MI-K(Pyro)DKPPR-OH] , report its pIC50.
Ans. 5.96
